Cited source: patent US8178552B2

target_system: JNK3 (Homo sapiens, UniProt P53779)
Sequence (P53779 whole entry, species assumed): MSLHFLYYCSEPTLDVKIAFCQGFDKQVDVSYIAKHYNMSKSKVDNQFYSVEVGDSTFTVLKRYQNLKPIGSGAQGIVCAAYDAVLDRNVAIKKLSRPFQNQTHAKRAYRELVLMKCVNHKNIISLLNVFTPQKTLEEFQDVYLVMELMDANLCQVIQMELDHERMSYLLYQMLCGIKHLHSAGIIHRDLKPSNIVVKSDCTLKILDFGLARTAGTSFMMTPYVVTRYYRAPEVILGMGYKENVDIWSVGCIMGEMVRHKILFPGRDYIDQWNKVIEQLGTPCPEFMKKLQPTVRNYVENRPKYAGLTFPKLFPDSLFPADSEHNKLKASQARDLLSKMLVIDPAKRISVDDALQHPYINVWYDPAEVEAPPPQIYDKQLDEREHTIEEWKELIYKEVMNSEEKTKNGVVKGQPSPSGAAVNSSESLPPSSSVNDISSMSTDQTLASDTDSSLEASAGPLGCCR
So basically, if IC50 comes in under 0.1 µM it's 1, and if it's 0.1 µM or more it's 0.

> print(dat)
                                    molecule  assigned.category
 1   Cn1cc(-c2c[nH]c3ncc(C4=CCCCCC4)cc23)cn1                  0
 2  Cn1cc(-c2c[nH]c3ncc(C4=CCC(c5ccccc5)CC4)cc23)cn1 (stereo not shown)                  0
 3  C1=C(c2cnc3[nH]cc(-c4cnn(CCN5CCOCC5)c4)c3c2)CCC1                  0
 4  c1n[nH]cc1-c1c[nH]c2ncc([C@H]3CC[C@H](N4CCOCC4)CC3)cc12                  0
 5  CC(C)N1CCN([C@H]2CC[C@H](c3cnc4[nH]cc(-c5cnn(C)c5)c4c3)CC2)CC1                  0
 6  Cn1cc(-c2c[nH]c3ncc(C4=CCC(N5CCOCC5)CC4)cc23)cn1 (stereo not shown)                  1
 7  Cn1cc(-c2c[nH]c3ncc([C@H]4CC[C@H](N5CCCOCC5)CC4)cc23)cn1                  0
 8      Cn1cc(-c2c[nH]c3ncc(C4CCCC4)cc23)cn1                  0
 9  CC1CCCC(c2cnc3[nH]cc(-c4cnn(C)c4)c3c2)C1 (mixture of isomers)                  1
10  Cn1cc(-c2c[nH]c3ncc(C4CCC(CN5CCOCC5)CC4)cc23)cn1 (mixture of isomers)                  1
